Test system: Serratia marcescens
Test: In vitro antibacterial activity against Serratia marcescens IFO 3736
Assay type: functional
Conditions: Serratia marcescens, IFO 3736; read-out: MIC
property.label: MIC (µg/mL)
API: value field is a number in µg/mL; no unit string.

CC1Sc2c(C(=O)O)c(=O)c3cc(F)c(N4CCSCC4)cc3n21 (stereo not drawn)	0.39
CC(C)N1CCN(c2cc3c(cc2F)c(=O)c(C(=O)O)c2n3C(C)S2)CC1 (stereo not drawn)	0.39

Enquiry: For the compound shown here, O=C(O)c1c2n(c3cc(N4CCNCC4)c(F)cc3c1=O)C(c1ccccc1)S2 (stereo not drawn) , give the reported MIC.
Return: 0.05
